Please go through the items and note down their EC50.
# target-system: HDELTA (Homo sapiens)
# Construct: expressed in transfected cells
# Sequence (P41143 whole entry): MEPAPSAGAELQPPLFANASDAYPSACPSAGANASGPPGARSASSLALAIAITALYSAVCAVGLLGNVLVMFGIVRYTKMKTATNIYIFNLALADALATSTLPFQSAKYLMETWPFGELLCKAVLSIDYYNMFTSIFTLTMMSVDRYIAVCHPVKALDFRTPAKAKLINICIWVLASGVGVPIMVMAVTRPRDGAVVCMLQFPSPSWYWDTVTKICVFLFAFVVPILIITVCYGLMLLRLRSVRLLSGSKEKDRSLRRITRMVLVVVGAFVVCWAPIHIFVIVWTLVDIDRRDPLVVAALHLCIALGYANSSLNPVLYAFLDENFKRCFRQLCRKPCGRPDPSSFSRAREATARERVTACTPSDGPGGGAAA
# measurement-notes: Functional agonism HDELTA (EC50, % EMAX)
# Format: biochemical
# protocol-conditions: read-out: HDELTA EC50
Where a name gives a salt, the structure may show the parent alone.
Answers are plain numbers, in nM.

CCN(CC)C(=O)c1ccc(C(c2cccc3cccnc23)N2CCN(Cc3nc[nH]n3)CC2)cc1.Cl.Cl (centres unmarked) [Example 19, Dihydrochloride]
85.2

Here is the next item to consider.
Given the compound CCN(CC)C(=O)c1ccc(C(c2cccc3cccnc23)N2CCN(Cc3c[nH]cn3)CC2)cc1 (centres unmarked) [Example 18, Dihydrochloride] , write its reported EC50.
5.85
